Data provenance is patent US20230414780A1.

experimentalTarget: T1, mouse TfR ectodomain fused to a mouse IgG1 Fc fragment (mouse, UniProt Q62351 89-763)
T1 construct: extracellular domain; not shown: mouse IgG1 Fc fragment
T1 sequence (Q62351 89-763): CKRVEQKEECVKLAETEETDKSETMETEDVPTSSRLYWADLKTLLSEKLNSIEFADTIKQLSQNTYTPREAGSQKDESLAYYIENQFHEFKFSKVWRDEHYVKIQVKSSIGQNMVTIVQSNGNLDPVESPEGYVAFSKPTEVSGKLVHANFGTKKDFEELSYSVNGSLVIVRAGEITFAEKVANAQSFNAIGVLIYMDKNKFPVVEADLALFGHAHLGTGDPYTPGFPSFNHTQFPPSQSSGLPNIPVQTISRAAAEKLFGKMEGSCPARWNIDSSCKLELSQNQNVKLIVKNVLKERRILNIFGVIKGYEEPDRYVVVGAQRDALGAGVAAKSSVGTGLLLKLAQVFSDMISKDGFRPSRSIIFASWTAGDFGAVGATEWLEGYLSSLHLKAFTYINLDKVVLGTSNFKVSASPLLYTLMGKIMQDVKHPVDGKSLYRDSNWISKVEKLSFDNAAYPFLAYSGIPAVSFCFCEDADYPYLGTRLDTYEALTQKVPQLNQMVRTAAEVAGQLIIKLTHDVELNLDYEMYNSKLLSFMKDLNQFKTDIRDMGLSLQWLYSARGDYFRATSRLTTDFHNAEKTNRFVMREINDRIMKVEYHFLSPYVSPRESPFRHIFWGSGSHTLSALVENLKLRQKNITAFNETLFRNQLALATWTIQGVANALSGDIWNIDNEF
protocolDescription: SPR, kinetic
observedProperty: kon (M⁻¹ s⁻¹)
The figure you give is taken to be in M⁻¹ s⁻¹; do not add the unit.

Recorded kon, per entry:
VHH A3 (C5^V3) (VHH) VHH: EVQLVESGGGVVQPGGSLKLSCVASGTDFSINFIRWYRQAPGKQREFVAGFTAAGNTNYADSMKGRFTISRDNTKNAVYLQIDSLKPEDTAVYYCYMLDKWGQGTQVTVSS; 647000
VHH A1 (C5^V1) (VHH) VHH: EVQLVESGGGVVQPGGSLKLSCVASGADFSINFIRWYRQAPGKQREFVAGFTATGNTNYADSMKGRFTISRDNTKNAVYLQIDSLKPEDTAVYYCYMLDKWGQGTQVTVSS; 546000
C5^h19 (VHH) VHH: EVQLVESGGGVVQPGGSLRLSCAASGTDFSINFIRWYRQAPGKQREFVAGFTATGNTNYADSVKGRFTISRDNAKNTLYLQMNSLRPEDTAVYYCYMLDKWGQGTQVTVSS; 12800

Now look at this entry.
Ask: What value of measured kon is listed for B8^V3 (VHH) VHH: EVQLVESGGGVVQPGGSLRLSCAASGEIFSINFMRWYREAPGKQREWVAGFTRDGSTNYPDSAKGRFTISRDNAKNTVYLQIDSLKPEDTAVYYCYMLDTWGQGTQVTVSS ?
Reply: 178000
